TESTED ON: aldose reductase (Bos taurus, UniProt P16116)
Construct: preparation of the enxyme from bovine lens; from tissue; host or cells: bovine lens
PROTOCOL DESCRIPTION: aldose reductase inhibition in vitro (modified Hayman and Kinoshita procedure, enzyme from bovine lens)
Assay type: biochemical
CONDITION SUMMARY: 10^-5 M
Here, each record is paired with measured inhibition at 10 µM data.
# unit: % | format: bare number

Worked cases, answers included:
COMPOUND	MEASUREMENT KIND	UNIT STRING	OBSERVED MEASUREMENT
CC(C)=NN1C(=O)CC2(C(=O)N(Cc3ccc(Br)cc3F)C(=O)c3ccccc32)C1=O (centres unmarked)	inhibition at 10 µM	%	8
O=C1c2ccccc2C2(CC(=O)N(N=C3CCCC3)C2=O)C(=O)N1Cc1ccc(Br)cc1F (centres unmarked)	inhibition at 10 µM	%	0
O=C1c2ccccc2C2(CC(=O)N(N=C3CCOCC3)C2=O)C(=O)N1Cc1ccc(Br)cc1F (centres unmarked)	inhibition at 10 µM	%	36
CC(C)=NN1C(=O)CC2(C(=O)N(Cc3ccc(Br)cc3F)C(=O)c3ccc(F)cc32)C1=O (centres unmarked)	inhibition at 10 µM	%	5

Problem: Could you share which inhibition at 10 µM value was measured for CCC(CC)=NN1C(=O)CC2(C(=O)N(Cc3ccc(Br)cc3F)C(=O)c3ccccc32)C1=O (centres unmarked) ?
Solution: 0

Origin of measurements: patent US5068332A
